- assay overview: Microsomal stability assay, mouse
- Type: in vitro ADME
- condition set: mouse liver microsomes
endpoint: half-life at 1 μM
State the value with its unit after it.

Asked: Requested read-out: half-life at 1 μM. Entry: C=CC1(C)CC(OC(=O)CSc2nc(C)c(C(=O)OCC)c(C)n2)C2(C)C(C)CCC3(CCC(=O)C32)C(C)C1O (stereo not shown) [EDT]
Given back: 30.1 min

---

- assay overview: Cytotoxicity assay (CCK-8), HepG2
- Type: cell-based
- condition set: human, HepG2 cells; HepG2, 200 μM converted to μg/mL
endpoint: CC50 at 6 h

Asked: Requested read-out: CC50 at 6 h. Entry: C=CC1(C)CC(OC(=O)CSc2nc(C)c(C(=O)OCC)c(C)n2)C2(C)C(C)CCC3(CCC(=O)C32)C(C)C1O (stereo not shown)
Given back: > 115 µg/mL

---

- assay overview: Cytotoxicity assay (CCK-8), HepG2
- Format: cell-based
- condition set: human, HepG2 cells; HepG2, 200 μM; read-out: cell viability
Counter-ions that a name gives are not always drawn.
Quick reference for viability at 6 h, 200 µM among some molecules
State the value with its unit after it.

Asked: Requested read-out: viability at 6 h, 200 µM. Entry: C=CC1(C)CC(OC(=O)CSc2nc(C)c(C(=O)OCC)c(C)n2)C2(C)C(C)CCC3(CCC(=O)C32)C(C)C1O (centres unmarked)
Given back: 77.5%

Asked: Then what about the molecule C=C[C@]1(C)C[C@@H](OC(=O)CSCCN(CC)CC)[C@]2(C)[C@H](C)CC[C@]3(CCC(=O)[C@H]32)[C@@H](C)[C@@H]1O [tiamulin, Tiamulin fumarate, reference compound] ?
Given back: 55.6%

---

- Tested on: CYP2D6
- assay overview: CYP450 inhibition in liver microsomes, probe substrate
- Format: biochemical
- condition set: CYP2D6, rat liver microsomes
endpoint: IC50 at 30 min

Asked: Requested read-out: IC50 at 30 min. Entry: C=CC1(C)CC(OC(=O)CSc2nc(C)c(C(=O)OCC)c(C)n2)C2(C)C(C)CCC3(CCC(=O)C32)C(C)C1O (stereo not shown)
Given back: > 100 µM

---

- assay overview: Cytotoxicity assay (CCK-8), HepG2
- Assay type: cell-based
- condition set: human, HepG2 cells; HepG2, 100 μM; read-out: cell viability
Where a name gives a salt, the structure may show the parent alone.
endpoint: viability at 6 h, 100 µM
State the value with its unit after it.

C=C[C@]1(C)C[C@@H](OC(=O)CSCCN(CC)CC)[C@]2(C)[C@H](C)CC[C@]3(CCC(=O)[C@H]32)[C@@H](C)[C@@H]1O [tiamulin, Tiamulin fumarate, reference compound]; 60.8%

Asked: Requested read-out: viability at 6 h, 100 µM. Entry: C=CC1(C)CC(OC(=O)CSc2nc(C)c(C(=O)OCC)c(C)n2)C2(C)C(C)CCC3(CCC(=O)C32)C(C)C1O (centres unmarked) [EDT]
Given back: 99.7%

---

- assay overview: Microsomal stability assay, human
- Assay type: in vitro ADME
- condition set: human liver microsomes
endpoint: half-life at 1 μM (min)
# value in min; strip the unit string

Asked: Requested read-out: half-life at 1 μM. Entry: C=CC1(C)CC(OC(=O)CSc2nc(C)c(C(=O)OCC)c(C)n2)C2(C)C(C)CCC3(CCC(=O)C32)C(C)C1O (stereo not shown)
Given back: 43.6

---

- assay overview: Cytotoxicity assay (CCK-8), HEK293T
- Assay type: cell-based
- condition set: human, HEK293T cells, 200 μM converted to μg/mL
endpoint: CC50 at 6 h

Asked: Requested read-out: CC50 at 6 h. Entry: C=CC1(C)CC(OC(=O)CSc2nc(C)c(C(=O)OCC)c(C)n2)C2(C)C(C)CCC3(CCC(=O)C32)C(C)C1O (stereo not shown)
Given back: > 115 µg/mL
